# method_notes: pKa measurement of lipid with TNS fluorescent probe
# Assay type: physicochemical
readout_type: pKa
Form field (numeric): enter value without unit.

Data request: Recorded pKa of CCCCC/C=C\C/C=C\CCCCCCCCOCC(CN1CCCC1C)OCCOCCOCCNC(=O)O[C@H]1CC[C@@]2(C)C(=CC[C@H]3[C@@H]4CC[C@H]([C@H](C)CCCC(C)C)[C@@]4(C)CC[C@@H]32)C1 (some centres unmarked) [RV12] , please.
Data returned: 7

====

# method_notes: pKa measurement of lipid with TNS fluorescent probe
# Type: physicochemical
# applied_conditions: probe 6-(p-toluidino)-2-naphthalenesulfonic acid (TNS); lipid alone, TNS fluorescence method; read-out: pKa of cationic lipid
The following compounds are listed with their measured pKa values.
Form field (numeric): enter value without unit.

In [3]: df
Out[3]:
                                   compound  readout_number
0  CCCCCCCC/C=C\CCCCCCCCNC(=O)C(CN(C)C)NC(=O)CCCCCCC/C=C\CCCCCCCC (stereo not shown)             6.1

Let us move to another entry and its pKa.
Data request: Recorded pKa of CCCCC/C=C\C/C=C\CCCCCCCCNC(=O)C(CN(C)C)NC(=O)CCCCCCC/C=C\C/C=C\CCCCC (stereo not shown) , please.
Data returned: 6.1
